Test: Volume of distribution at steady state in Sprague-Dawley rat
Type: ADME
Conditions: in vivo, read-out: Vdss
reported-endpoint: Vd (L/kg)
Dear colleague, please return just the value in L/kg, with no unit written.

{"structure-as-smiles": "C[C@H]1NC(=O)c2cc(-c3cccc4c(=O)n(C5CC5)c(NC5(C)CC5)nc34)[nH]c21", "Vd / L/kg": 1.2}

// `C[C@H]1NC(=O)c2cc(-c3cccc4c(=O)n([C@@H](C)c5cn(C)cn5)c(NC5(C)CC5)nc34)[nH]c21` : Vd value = 1

// `C[C@H]1NC(=O)c2cc(-c3cccc4c(=O)n(C5(C)CC5)c(NC5(C)CC5)nc34)[nH]c21` : Vd value = 1.7

---

Experiment: Solubility of the compound in fasted state simulated intestinal fluid at pH 6.8 incubated for 1 hr in shaker and subsequently equilibrated for 72 hrs by LC/MS analysis
Format: physicochemical
Mark No for solubility thermodynamic at 72 h values under 400 µM, and Yes for everything at or above.

{"compound": "C[C@H](c1cn(C)cn1)n1c(NC2(C)CC2)nc2c(-c3cc4c([nH]3)[C@@H](C)NC4=O)cccc2c1=O", "class": "Yes"}
{"compound": "CC(C)n1c(NC(C)(C)C)nc2c(-c3cc4c([nH]3)[C@@H](C)NC4=O)cccc2c1=O", "class": "No"}
{"compound": "C[C@H]1NC(=O)c2cc(-c3cccc4c(=O)n(CC5(O)CC5)c(NC5(C)CC5)nc34)[nH]c21", "class": "No"}

Is reported solubility thermodynamic at 72 h greater than or equal to 400 µM here: `C[C@H]1NC(=O)c2cc(-c3cccc4c(=O)n(C5CCC5)c(NC5(C)CC5)nc34)[nH]c21`
No

Is reported solubility thermodynamic at 72 h greater than or equal to 400 µM here: `C[C@H]1NC(=O)c2cc(-c3cccc4c(=O)n(C)c(NC(C)(C)C)nc34)[nH]c21`
No

Is reported solubility thermodynamic at 72 h greater than or equal to 400 µM here: CC(c1cn(C)cn1)n1c(NC2(C)CC2)nc2c(-c3cc4c([nH]3)[C@@H](C)NC4=O)cccc2c1=O (mixture of isomers)
Yes

---

Test: Solubility of the compound in fasted state simulated intestinal fluid at pH 6.8 incubated for 1 hr in shaker and subsequently equilibrated for 72 hrs by LC/MS analysis
Assay type: physicochemical
reported-endpoint: solubility thermodynamic at 72 h (µM)
Dear colleague, please return just the value in µM, with no unit written.

{"compound": "C[C@H]1NC(=O)c2cc(-c3cccc4c(=O)n(Cc5cn(C)cn5)c(NC(C)(C)C)nc34)[nH]c21", "solubility thermodynamic at 72 h [µM]": 131}
{"compound": "C[C@H]1NC(=O)c2cc(-c3cccc4c(=O)n(C(C)(C)C)c(NC5(C)CC5)nc34)[nH]c21", "solubility thermodynamic at 72 h [µM]": 326}

// CC(c1cn(C)cn1)n1c(NC(C)(C)C)nc2c(-c3cc4c([nH]3)[C@@H](C)NC4=O)cccc2c1=O (some centres undefined) : solubility thermodynamic at 72 h value = 489

---

Experiment: Solubility of the compound in 0.01N HCl at pH 2 incubated for 1 hr in shaker and subsequently equilibrated for 72 hrs by LC/MS analysis
Assay type: physicochemical
The reader will find reported solubility thermodynamic at 72 h values listed item by item below.
Dear colleague, please return just the value in µM, with no unit written.

Below, each entry is followed by its recorded solubility thermodynamic at 72 h result.
{"structure-as-smiles": "C[C@H]1NC(=O)c2cc(-c3cccc4c(=O)n(Cc5cn(C)cn5)c(NC(C)(C)C)nc34)[nH]c21", "unit-string": "µM", "solubility thermodynamic at 72 h": 94}
{"structure-as-smiles": "C[C@H]1NC(=O)c2cc(-c3cccc4c(=O)n(C[C@@H]5CCCO5)c(NC(C)(C)C)nc34)[nH]c21", "unit-string": "µM", "solubility thermodynamic at 72 h": 28}
{"structure-as-smiles": "C[C@H]1NC(=O)c2cc(-c3cccc4c(=O)n([C@@H](C)c5cn(C)cn5)c(NC5(C)CC5)nc34)[nH]c21", "unit-string": "µM", "solubility thermodynamic at 72 h": 464}

Attention now turns to another entry.
// `C[C@H]1NC(=O)c2cc(-c3cccc4c(=O)n(C[C@H]5CN(C)CCO5)c(NC(C)(C)C)nc34)[nH]c21` : solubility thermodynamic at 72 h value = 256

---

Assay: Solubility of the compound in 0.01N HCl at pH 2 incubated for 1 hr in shaker and subsequently equilibrated for 72 hrs by LC/MS analysis
Format: physicochemical
The reader will find reported solubility thermodynamic at 72 h values listed item by item below.
Dear colleague, please return just the value in µM, with no unit written.

{"compound": "C[C@H]1NC(=O)c2cc(-c3cccc4c(=O)n(C5CC5)c(NC5(C)CC5)nc34)[nH]c21", "unit-string": "µM", "solubility thermodynamic at 72 h": 458}
{"compound": "C[C@H]1NC(=O)c2cc(-c3cccc4c(=O)n(CC5(O)CC5)c(NC5(C)CC5)nc34)[nH]c21", "unit-string": "µM", "solubility thermodynamic at 72 h": 43}
{"compound": "C[C@H]1NC(=O)c2cc(-c3cccc4c(=O)n(C5CC5)c(NC(C)(C)C)nc34)[nH]c21", "unit-string": "µM", "solubility thermodynamic at 72 h": 95}
{"compound": "C[C@H]1NC(=O)c2cc(-c3cccc4c(=O)n(C(C)(C)C)c(NC5(C)CC5)nc34)[nH]c21", "unit-string": "µM", "solubility thermodynamic at 72 h": 495}
{"compound": "CC(c1cn(C)cn1)n1c(NC2(C)CC2)nc2c(-c3cc4c([nH]3)[C@@H](C)NC4=O)cccc2c1=O (mixture of isomers)", "unit-string": "µM", "solubility thermodynamic at 72 h": 500}

Attention now turns to another entry.
// `C[C@H]1NC(=O)c2cc(-c3cccc4c(=O)n(CC5COC5)c(NC(C)(C)C)nc34)[nH]c21` : solubility thermodynamic at 72 h value = 14

---

The reader will find reported bioavailability values listed item by item below.
Assay: Oral bioavailability in Sprague-Dawley rat at 5 mg/kg
Type: ADME, organism-based
Settings: in vivo
Dear colleague, please return just the value in %, with no unit written.

{"structure-as-smiles": "C[C@H]1NC(=O)c2cc(-c3cccc4c(=O)n([C@@H](C)c5cn(C)cn5)c(NC5(C)CC5)nc34)[nH]c21", "bioavailability (%)": 19}
{"structure-as-smiles": "C[C@H]1NC(=O)c2cc(-c3cccc4c(=O)n(C5(C)CC5)c(NC5(C)CC5)nc34)[nH]c21", "bioavailability (%)": 85}

// `C[C@H]1NC(=O)c2cc(-c3cccc4c(=O)n(C5CC5)c(NC5(C)CC5)nc34)[nH]c21` : bioavailability value = 68

---

Experiment: Oral bioavailability in dog
Type: ADME, organism-based, Canis lupus familiaris
Conditions: in vivo
reported-endpoint: bioavailability (%)
Dear colleague, please return just the value in %, with no unit written.

// `C[C@H]1NC(=O)c2cc(-c3cccc4c(=O)n(C5(C)CC5)c(NC5(C)CC5)nc34)[nH]c21` : bioavailability value = 56

---

The reader will find reported solubility thermodynamic at 72 h values listed item by item below.
Assay: Solubility of the compound in 0.01N HCl at pH 2 incubated for 1 hr in shaker and subsequently equilibrated for 72 hrs by LC/MS analysis
Type: physicochemical
Dear colleague, please return just the value in µM, with no unit written.

Below, each entry is followed by its recorded solubility thermodynamic at 72 h result.
{"structure-as-smiles": "C[C@H]1NC(=O)c2cc(-c3cccc4c(=O)n(CC5(N)CC5)c(NC(C)(C)C)nc34)[nH]c21", "solubility thermodynamic at 72 h [µM]": 500}
{"structure-as-smiles": "C[C@H](c1cn(C)cn1)n1c(NC2(C)CC2)nc2c(-c3cc4c([nH]3)[C@@H](C)NC4=O)cccc2c1=O", "solubility thermodynamic at 72 h [µM]": 485}
{"structure-as-smiles": "C[C@H]1NC(=O)c2cc(-c3cccc4c(=O)n(C)c(NC5(C)CC5)nc34)[nH]c21", "solubility thermodynamic at 72 h [µM]": 500}
{"structure-as-smiles": "C[C@H]1NC(=O)c2cc(-c3cccc4c(=O)n(CC5CC5)c(NC5(C)CC5)nc34)[nH]c21", "solubility thermodynamic at 72 h [µM]": 214}

// `C[C@H]1NC(=O)c2cc(-c3cccc4c(=O)n(C5(C)CC5)c(NC5(C)CC5)nc34)[nH]c21` : solubility thermodynamic at 72 h value = 490

// `C[C@H]1NC(=O)c2cc(-c3cccc4c(=O)n(CC(C)(C)N)c(NC(C)(C)C)nc34)[nH]c21` : solubility thermodynamic at 72 h value = 347

Sourced from ChEMBL document CHEMBL4368910
